Quick list: amyloid nucleation score per entry.
ASSAY_PROTOCOL: amyloid nucleation score (Sup35N fusion, yeast selection) (log enrichment); library NNK2; higher = more nucleation; inactive = no reads after selection;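 also: zero at mode of non-aggregating sequences after 7 days selection at 30°C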
Please give the numeric answer without any surrounding text.

Supply measured amyloid nucleation score of LTLYSGVRCFSSYLP in your reply.
0.012

* * *

ASSAY_PROTOCOL: amyloid nucleation score (Sup35N fusion, yeast selection) (log enrichment); library NNK2; higher = more nucleation; inactive = no reads after selection
PROPERTY_MEASURED: amyloid nucleation score

FYWNMYGDFDFDPSAPGTNG | inactive
VQGLHCWIG | inactive
VVYDHILVAKFRAFVLGPFL | 4.07

* * *

ASSAY_PROTOCOL: amyloid nucleation score (Sup35N fusion, yeast selection) (log enrichment); library NNK1; higher = more nucleation; inactive = no reads after selection
Classification field. Basis: amyloid nucleation score. Definitions: lo (below 0.2), mid (0.2 to below 0.6), hi (0.6 or more)

# count of solved cases: 5
MPGNQYCSVSYLYQRSSGTV | mid
SQGAMFVTFMFLEYVMPQPP | hi
KKFEVSL | lo
QGKLFFLVNLYSKPQNSHYG | hi
LIIILVQQSEGACRILARD | lo

Record SNILFLYRMKRALPNSSWEA — which class?
lo

Quick check: band for NPNTKYINCPHRVAFRGKLM
mid

In plain terms, what class is KWRNLSS ?
hi

Quick check: band for RCLMPYNYE
hi

Sort into band: YGINNLPI
lo

Band for the recorded amyloid nucleation score of YNMVYQCLIRCVAILFNLGR ?
lo

* * *

Below is a list of entries, each paired with its recorded amyloid nucleation score value.
ASSAY_PROTOCOL: amyloid nucleation score (Sup35N fusion, yeast selection) (log enrichment); library NNK2; higher = more nucleation; inactive = no reads after selection
Number, no unit, nothing else.

YQLLLFV | -0.969

// Input: CTCNLWYTLMCAFHASRLVH . Output its amyloid nucleation score only.
0.327

Let me know recorded amyloid nucleation score for SQVTISHSNEHMVGACAVYR , thanks.
-0.456

Supply recorded amyloid nucleation score for VFWITAQMYY here.
2.18

Supply measured amyloid nucleation score of APVMYVT in your reply.
0.057

* * *

ASSAY_PROTOCOL: amyloid nucleation score (Sup35N fusion, yeast selection) (log enrichment); library NNK3; higher = more nucleation; inactive = no reads after selection
PROPERTY_MEASURED: amyloid nucleation score

LRIMSIYIEEALSIGHDNWF | 0.205
LFSSFTSPLRMRWLDRSYHF | inactive
RPFLCYLTAPASMNNTLNQV | inactive
HSRWMAFPWMLGPLLLNRNL | inactive

* * *

ASSAY_PROTOCOL: amyloid nucleation score (Sup35N fusion, yeast selection) (log enrichment); library NNK3; higher = more nucleation; inactive = no reads after selection
PROPERTY_MEASURED: amyloid nucleation score

ISPSYVQSDQFIGRTHVS | inactive
IMHGSNMVRRGLVQY | inactive
LWVYAPFDSK | inactive
IQTQTGTLVSRPLQPTAVVR | -0.007
STHFRCELQRICF | inactive
WNLHLLICEKSHTMEVMLLR | inactive
TWSMNIIMCLNRQVDQGFSL | 1.82
DCKMRIEICDMGLCTEHRKC | inactive
GVGNKGSTKNLEQVTASVVV | inactive
LNKHSAYGTDLVYSRLKFVL | inactive

Check the records and state amyloid nucleation score for VGTGVM
inactive

Give a short answer stating reported amyloid nucleation score for ILLIVL .
1.68

State, in one line, measured amyloid nucleation score of WYWSLA
-0.174

Please list amyloid nucleation score recorded for the substance LIISCMQFLVYKKCGFSMRH
inactive

State its amyloid nucleation score: FWWKSYFFNLKV
inactive

Answer with the recorded amyloid nucleation score of FIGDGSRDRRDGLLDLY only.
inactive

Input VVDYTARWHRSYSSNGQRRM , output reported amyloid nucleation score.
inactive

Give recorded amyloid nucleation score. GHGSFE
inactive

Answer with the recorded amyloid nucleation score of HQPGSRLI only.
inactive

Tell us which amyloid nucleation score value is on record for GELRPLIVGDNLGLS
inactive

Determine from records and report amyloid nucleation score for ISMLMFDLA
inactive

Could you please provide reported amyloid nucleation score for VDTILSNKVYVRAPPKRGSK ? Thanks!
inactive

Supply amyloid nucleation score value. Item: RMAYNFTKSR
inactive

Quickly give me recorded amyloid nucleation score for LVLYCF
inactive

* * *

ASSAY_PROTOCOL: amyloid nucleation score (Sup35N fusion, yeast selection) (log enrichment); library NNK3; higher = more nucleation; inactive = no reads after selection
PROPERTY_MEASURED: amyloid nucleation score

Illustrative cases are given below, each with its answer.
PYMIEVLRSDVNHDCSHMKW | inactive
RVTFWPFVVSAFRVMYGICK | inactive
ASWFYNIKKLNCCHFVQFAD | 1.64
ESWNRKVLRHVSVEWHWLV | inactive

Using the record for YSLAELMCMKEHLPMRNGCF , state its measured amyloid nucleation score.
0.774

Provide amyloid nucleation score value for the following substance: WPGNWSQFNQCWCRETTCYV
inactive

Give the reported amyloid nucleation score for this substance. SILMMGNLFKLLRKF
inactive

Let me know recorded amyloid nucleation score for FSAIRVLYSVKTELDSNNMY , thanks.
0.822

Identify measured amyloid nucleation score associated with TLLYERNEYVVRNTYWDICL
inactive

Dear colleague, please send me the reported amyloid nucleation score for IQHSFCGRNSDLPLNVWLMW when you can.
inactive

* * *

ASSAY_PROTOCOL: amyloid nucleation score (Sup35N fusion, yeast selection) (log enrichment); library NNK1; higher = more nucleation; inactive = no reads after selection
The substances listed here are annotated with their amyloid nucleation score.
API note: the answer field is a bare number with no unit suffix.

Record excerpt, results attached:
TGLDNHNICNRDTR | -0.034
HRSRITLANVS | -0.666
CSYQNCLVN | -0.795
IYASLNVEICFADLPWSTWV | 0.358
ASRAFSVVDYSGLLRGS | 0.498
VKSQCECHVSSFALFCWARD | 3.85
ICELIWGGRRSNGINGSTSG | 0.741
LLMGFGGAFSVNTADPRLLV | -0.752

Please give the documented amyloid nucleation score of MEAWRHSTSACSDGA
-0.245

Supply measured amyloid nucleation score of MTRNELLSLSLARCVGANAL in your reply.
0.088

* * *

ASSAY_PROTOCOL: amyloid nucleation score (Sup35N fusion, yeast selection) (log enrichment); library NNK3; higher = more nucleation; inactive = no reads after selection
PROPERTY_MEASURED: amyloid nucleation score

WNVPGVHCCIWVTRWEMGPT | 2.72
FSGATSFNQIYAVRTSCLFV | 1.01
KGVFRNAFELFKYHFSHAGM | inactive
LSSMWWLVRFYNFAF | inactive
SMTHRPTAVHSDVHGQCVKW | inactive

Determine its reported amyloid nucleation score: LFGGCLSLDDIVTDRLMTCF
inactive

Dear colleague, please send me the reported amyloid nucleation score for FKLSMLA when you can.
inactive

Look up amyloid nucleation score of FHYCCYITAAQYYDACCVVP and report it.
inactive

Indicate the recorded amyloid nucleation score value for this substance: TPDFVRSRKMNWVAIKKRAE
inactive

Give a short answer stating reported amyloid nucleation score for SLLWCKANPKRF .
inactive

Recall and state the measured amyloid nucleation score for RILMCMLYAAGSMARYPIWG .
inactive

Please look at this substance and report its amyloid nucleation score: LCCRQVTFERDVVVRYRRRR
inactive

Quickly give me recorded amyloid nucleation score for ISKSDLSLFN
inactive

State its amyloid nucleation score: WRSMAFPVVK
0.988

Annotate the substance FALSWSSNGAALLRLELTTL with its measured amyloid nucleation score.
0.224

Please supply the value of reported amyloid nucleation score for the item EKMDLPRAYGDIRTPKEVVR
0.788

State its amyloid nucleation score: INNLYDVQRGIADFWKSWLV
inactive

For the substance KYCNFTGVFWQTNIFTVVPM , give its reported amyloid nucleation score.
2.17

Specify measured amyloid nucleation score for VQRSYWICQLPAGVSWSGI .
inactive

Dear colleague, please send me the reported amyloid nucleation score for PRRSNSFRLPLIHISQYSLK when you can.
0.939

* * *

Listed here: items and their measured amyloid nucleation score.
ASSAY_PROTOCOL: amyloid nucleation score (Sup35N fusion, yeast selection) (log enrichment); library NNK1; higher = more nucleation; inactive = no reads after selection
// no unit string in output, number only

Completed entries (count: 3):
TWIEDCSYYEMYTGPERTLT | -0.282
GFHEIMLYYSYIKVLVIDSH | 0.387
NSLMFRPWTLGDF | -0.434

Give a short answer stating reported amyloid nucleation score for SSYAHAVRTQDFKLASGHYV .
-0.7

Fill in amyloid nucleation score for record LCGDHLFWLDVGDAVGVFLA
0.176

Provide measured amyloid nucleation score value, entry: CSFGQIPCNLDQTGLLRARG
1.1

Hello, please tell me recorded amyloid nucleation score for this one: HIFVMIYVLMEDGSKKLTSM
0.99

Given the substance FFMIRRMLVTGWARQCIPRY , write its reported amyloid nucleation score.
-0.105
